# target.system: DP receptor (Homo sapiens)
# Construct: endogenous in cells
# Sequence (Q13258 1-359): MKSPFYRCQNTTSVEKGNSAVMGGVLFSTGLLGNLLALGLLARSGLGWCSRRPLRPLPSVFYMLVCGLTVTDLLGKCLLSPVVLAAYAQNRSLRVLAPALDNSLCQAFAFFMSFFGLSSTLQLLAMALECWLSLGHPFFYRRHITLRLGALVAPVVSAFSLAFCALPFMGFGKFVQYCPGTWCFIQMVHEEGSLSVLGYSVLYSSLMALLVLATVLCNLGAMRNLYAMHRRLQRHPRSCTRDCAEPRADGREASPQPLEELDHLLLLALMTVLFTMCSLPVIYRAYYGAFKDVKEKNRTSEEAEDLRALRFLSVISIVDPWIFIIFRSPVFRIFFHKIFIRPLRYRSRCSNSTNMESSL
# test.method.notes: cAMP assay with washed platelets (PGD2-stimulated cAMP, HTRF)
# reported.conditions: 100 nM PGD2, cAMP by HTRF, read-out: IC50 (50% DP-inhibitory concentration in the cAMP assay)
pIC50: −log10 of the molar value.
property.label: pIC50

# input molecule: CC(C)Oc1ccc(S(=O)(=O)N2CCC(c3cn(CC(=O)O)c4nc(OCc5ccccc5)ccc34)CC2)cc1 [Compound I-31] ; wanted: its pIC50
8.77

a. CCOc1ccc2c(C3CCN(S(=O)(=O)c4ccc(OC(C)C)cc4)CC3)cn(CC(=O)O)c2n1 [Compound I-29]
b. CC(C)Oc1ccc(S(=O)(=O)N2CCC(c3cn(CC(=O)O)c4nc(-c5ccccc5)ccc34)CC2)cc1 [Compound I-16]
Of a and b , which shows the smaller pIC50 value? Response format: the label of the selected entry.
a

* * *

# System: Brown Norway (BN) Rats
# test.method.notes: OVA asthma model of rat (hyperresponsive airway, infiltration of inflammatory cells, mucus secretion)
# Format: in vivo
# reported.conditions: 10 mg/kg p.o. once a day for three days, vs control group, AUC of acetylcholine response
# Description: Brown Norway (BN) Rats were sensitized by i.p. administration of 0.1 mg/mL of ovalbumin (OVA) and 1 mg of aluminum hydroxide gel. […] After the measurement of increased hyperresponsive airway was completed, bronchoalveoli of the rats were washed with 5 mL of saline three times. Total cell number in the washings was counted by a hemacytometer under light microscope, and inhibition rates of infiltration of inflammatory cells against the control group were calculated. […]
The reader will find reported inhibition rate (%) increased hyperresponsive airway values listed item by item below.
The answer is to be given in %; state only the numeric part.

Lab note: need inhibition rate (%) increased hyperresponsive airway for CC(C)Oc1ccc(S(=O)(=O)N2CCC(c3cn(CC(=O)O)c4ncccc34)CC2)cc1 [Compound I-1] on Brown Norway (BN) Rats, anyone have it?
55

Further cases:
Lab note: need inhibition rate (%) increased hyperresponsive airway for CC[C@@H](C)Oc1ccc(S(=O)(=O)N2CCC(c3cn(CC(=O)O)c4ncccc34)CC2)cc1 [Compound I-6] on Brown Norway (BN) Rats, anyone have it?
69

Lab note: need inhibition rate (%) increased hyperresponsive airway for COc1ccc2c(C3CCN(S(=O)(=O)c4ccc(OC(C)C)cc4)CC3)cn(CC(=O)O)c2n1 [Compound I-14] on Brown Norway (BN) Rats, anyone have it?
84

Lab note: need inhibition rate (%) increased hyperresponsive airway for CC(C)Oc1ccc(S(=O)(=O)N2CCC(c3cn(CC(=O)O)c4nc(Br)ccc34)CC2)cc1 [Compound I-13] on Brown Norway (BN) Rats, anyone have it?
58

Reference source for all entries: patent US20110028717A1
